# Test: viability loss with induced miR-34 in A549 – imaging, A549 dox-inducible miR-34, nuclei and caspase counts, primary screen (AID 1347080); note: test concentration not given here
# Recorded Conditions: A549 miR-34 inducible, Hoechst nuclei count, 48 h; stronger effect = lower value; cell number ratio, induced over uninduced
Measure: fold change
Keep it simple and answer with nothing but the number.

Use these answered entries as a reference point.
Exam item: # query: fold change of entry `Cc1cc(NC(=O)Nc2ccc3c(ccn3C)c2)sn1`
Marked response: 1.07

Exam item: Given the entry `N=S(=O)(O)Cc1noc2ccccc12` , report its measured fold change.
Marked response: 0.955

Exam item: Given the compound Nc1nc(CC(=O)Nc2ccc(CCNCC(O)c3ccccc3)cc2)cs1 (stereo unspecified) , what is its reported fold change?
Marked response: 0.898

Exam item: Consider the compound `Cc1c(CNC(=O)C(=O)c2c(-c3ccccc3)cc3ccccn23)cnn1C` and give its measured fold change.
Marked response: 0.827

Exam item: Can you share its fold change? I mean this compound: O[Si](CCCN1CCCCC1)(c1ccc(F)cc1)C1CCCCC1 (stereo unspecified)
Marked response: 0.937

Exam item: Could you tell me which fold change is on file for Cc1nsc(NC(=O)NC2CCc3ccccc3C2)n1 (stereo unspecified) ?
Marked response: 0.899

Proceed to the following item.
Exam item: I have this compound here, NC(Cc1cc(I)c(Oc2cc(I)c(O)c(I)c2)c(I)c1)C(=O)O (stereo unspecified) , and I need its recorded fold change.
Marked response: 0.891
